Entry source: ChEMBL document CHEMBL5625187

Test system: Enterococcus faecium
protocol_summary: Potency index, ratio of daptomycin MIC to test compound MIC for antibacterial activity against glycopeptide-resistant Enterococcus faecium Efm-HS-0649
Format: functional
attribute_measured: Ratio
Answer with the value's number alone.

State measured Ratio of the molecule "CCCCCCCCCC(=O)N[C@@H](Cc1c[nH]c2ccccc12)C(=O)N[C@H](CC(N)=O)C(=O)N[C@@H](CC(=O)O)C(=O)N[C@@H]1C(=O)NCC(=O)N[C@@H](CCCN)C(=O)N[C@@H](CC(=O)O)C(=O)N[C@H](C)C(=O)N[C@@H](CC(=O)O)C(=O)NCC(=O)N[C@H](CO)C(=O)N[C@@H]([C@H](C)CC(=O)O)C(=O)N[C@@H](CC(=O)c2ccccc2NCCCCCC)C(=O)O[C@@H]1C" with Enterococcus faecium.
4

State measured Ratio of the molecule "CCCCCCCCCC(=O)N[C@@H](Cc1c[nH]c2ccccc12)C(=O)N[C@H](CC(N)=O)C(=O)N[C@@H](CC(=O)O)C(=O)N[C@@H]1C(=O)NCC(=O)N[C@@H](CCCN)C(=O)N[C@@H](CC(=O)O)C(=O)N[C@H](C)C(=O)N[C@@H](CC(=O)O)C(=O)NCC(=O)N[C@H](CO)C(=O)N[C@@H]([C@H](C)CC(=O)O)C(=O)N[C@@H](CC(=O)c2ccccc2NCc2ccccn2)C(=O)O[C@@H]1C" with Enterococcus faecium.
8

State measured Ratio of the molecule "CCCCCCCCCC(=O)N[C@@H](Cc1c[nH]c2ccccc12)C(=O)N[C@H](CC(N)=O)C(=O)N[C@@H](CC(=O)O)C(=O)N[C@@H]1C(=O)NCC(=O)N[C@@H](CCCN)C(=O)N[C@@H](CC(=O)O)C(=O)N[C@H](C)C(=O)N[C@@H](CC(=O)O)C(=O)NCC(=O)N[C@H](CO)C(=O)N[C@@H]([C@H](C)CC(=O)O)C(=O)N[C@@H](CC(=O)c2ccccc2NCc2ccccc2)C(=O)O[C@@H]1C" with Enterococcus faecium.
4

State measured Ratio of the molecule "CCCCCCCCCC(=O)N[C@@H](Cc1c[nH]c2ccccc12)C(=O)N[C@H](CC(N)=O)C(=O)N[C@@H](CC(=O)O)C(=O)N[C@@H]1C(=O)NCC(=O)N[C@@H](CCCN)C(=O)N[C@@H](CC(=O)O)C(=O)N[C@H](C)C(=O)N[C@@H](CC(=O)O)C(=O)NCC(=O)N[C@H](CO)C(=O)N[C@@H]([C@H](C)CC(=O)O)C(=O)N[C@@H](CC(=O)c2ccccc2NC)C(=O)O[C@@H]1C" with Enterococcus faecium.
2

State measured Ratio of the molecule "CCCCCCCCCC(=O)N[C@@H](Cc1c[nH]c2ccccc12)C(=O)N[C@H](CC(N)=O)C(=O)N[C@@H](CC(=O)O)C(=O)N[C@@H]1C(=O)NCC(=O)N[C@@H](CCCN)C(=O)N[C@@H](CC(=O)O)C(=O)N[C@H](C)C(=O)N[C@@H](CC(=O)O)C(=O)NCC(=O)N[C@H](CO)C(=O)N[C@@H]([C@H](C)CC(=O)O)C(=O)N[C@@H](CC(=O)c2ccccc2NCCC)C(=O)O[C@@H]1C" with Enterococcus faecium.
2

State measured Ratio of the molecule CCCCCCCCCC(=O)N[C@@H](Cc1c[nH]c2ccccc12)C(=O)N[C@H](CC(N)=O)C(=O)N[C@@H](CC(=O)O)C(=O)N[C@@H]1C(=O)NCC(=O)N[C@@H](CCCN)C(=O)N[C@@H](CC(=O)O)C(=O)N[C@H](C)C(=O)N[C@@H](CC(=O)O)C(=O)NCC(=O)N[C@H](CO)C(=O)N[C@@H]([C@H](C)CC(=O)O)C(=O)N[C@@H](CC(=O)c2ccccc2NCCCCC)C(=O)O[C@@H]1C (single isomer, unassigned) with Enterococcus faecium.
2

State measured Ratio of the molecule CCCCCCCCCC(=O)N[C@@H](Cc1c[nH]c2ccccc12)C(=O)N[C@H](CC(N)=O)C(=O)N[C@@H](CC(=O)O)C(=O)N[C@@H]1C(=O)NCC(=O)N[C@@H](CCCN)C(=O)N[C@@H](CC(=O)O)C(=O)N[C@H](C)C(=O)N[C@@H](CC(=O)O)C(=O)NCC(=O)N[C@H](CO)C(=O)N[C@@H]([C@H](C)CC(=O)O)C(=O)N[C@@H](CC(=O)c2ccccc2NCC)C(=O)O[C@@H]1C (single isomer, unassigned) with Enterococcus faecium.
2

State measured Ratio of the molecule CCCCCCCCCNc1ccccc1C(=O)C[C@@H]1NC(=O)[C@H]([C@H](C)CC(=O)O)NC(=O)[C@@H](CO)NC(=O)CNC(=O)[C@H](CC(=O)O)NC(=O)[C@@H](C)NC(=O)[C@H](CC(=O)O)NC(=O)[C@H](CCCN)NC(=O)CNC(=O)[C@@H](NC(=O)[C@H](CC(=O)O)NC(=O)[C@@H](CC(N)=O)NC(=O)[C@H](Cc2c[nH]c3ccccc23)NC(=O)CCCCCCCCC)[C@@H](C)OC1=O (single isomer, unassigned) with Enterococcus faecium.
2

State measured Ratio of the molecule CCCCCCCCCC(=O)N[C@@H](Cc1c[nH]c2ccccc12)C(=O)N[C@H](CC(N)=O)C(=O)N[C@@H](CC(=O)O)C(=O)N[C@@H]1C(=O)NCC(=O)N[C@@H](CCCN)C(=O)N[C@@H](CC(=O)O)C(=O)N[C@H](C)C(=O)N[C@@H](CC(=O)O)C(=O)NCC(=O)N[C@H](CO)C(=O)N[C@@H]([C@H](C)CC(=O)O)C(=O)N[C@@H](CC(=O)c2ccccc2NCCCC)C(=O)O[C@@H]1C (single isomer, unassigned) with Enterococcus faecium.
2

###

Test system: Staphylococcus aureus
protocol_summary: Antibacterial activity against methicillin-resistant Staphylococcus aureus USA300 assessed as reduction in microbial growth incubated for 24 hrs by broth microdilution method
Type: functional
attribute_measured: MIC (µg/mL)
Write the value in µg/mL as a bare number.

Item CCCCCCCCCNc1ccccc1C(=O)C[C@@H]1NC(=O)[C@H]([C@H](C)CC(=O)O)NC(=O)[C@@H](CO)NC(=O)CNC(=O)[C@H](CC(=O)O)NC(=O)[C@@H](C)NC(=O)[C@H](CC(=O)O)NC(=O)[C@H](CCCN)NC(=O)CNC(=O)[C@@H](NC(=O)[C@H](CC(=O)O)NC(=O)[C@@H](CC(N)=O)NC(=O)[C@H](Cc2c[nH]c3ccccc23)NC(=O)CCCCCCCCC)[C@@H](C)OC1=O (single isomer, unassigned) : provide MIC
1

Item CCCCCCCCCC(=O)N[C@@H](Cc1c[nH]c2ccccc12)C(=O)N[C@H](CC(N)=O)C(=O)N[C@@H](CC(=O)O)C(=O)N[C@@H]1C(=O)NCC(=O)N[C@@H](CCCN)C(=O)N[C@@H](CC(=O)O)C(=O)N[C@H](C)C(=O)N[C@@H](CC(=O)O)C(=O)NCC(=O)N[C@H](CO)C(=O)N[C@@H]([C@H](C)CC(=O)O)C(=O)N[C@@H](CC(=O)c2ccccc2NCCCC)C(=O)O[C@@H]1C (single isomer, unassigned) : provide MIC
0.5

Item CCCCCCCCCC(=O)N[C@@H](Cc1c[nH]c2ccccc12)C(=O)N[C@H](CC(N)=O)C(=O)N[C@@H](CC(=O)O)C(=O)N[C@@H]1C(=O)NCC(=O)N[C@@H](CCCN)C(=O)N[C@@H](CC(=O)O)C(=O)N[C@H](C)C(=O)N[C@@H](CC(=O)O)C(=O)NCC(=O)N[C@H](CO)C(=O)N[C@@H]([C@H](C)CC(=O)O)C(=O)N[C@@H](CC(=O)c2ccccc2NCCC2C(=O)C=CC2=O)C(=O)O[C@@H]1C (single isomer, unassigned) : provide MIC
128

###

Tested on: Enterococcus faecium
protocol_summary: Potency index, ratio of daptomycin MIC to test compound MIC for antibacterial activity against glycopeptide-resistant Enterococcus faecium Efm-HS-0649
Assay type: functional
attribute_measured: Ratio
Answer with the value's number alone.

Item CCCCCCCCCC(=O)N[C@@H](Cc1c[nH]c2ccccc12)C(=O)N[C@H](CC(N)=O)C(=O)N[C@@H](CC(=O)O)C(=O)N[C@@H]1C(=O)NCC(=O)N[C@@H](CCCN)C(=O)N[C@@H](CC(=O)O)C(=O)N[C@H](C)C(=O)N[C@@H](CC(=O)O)C(=O)NCC(=O)N[C@H](CO)C(=O)N[C@@H]([C@H](C)CC(=O)O)C(=O)N[C@@H](CC(=O)c2ccccc2NCCCCCCCC)C(=O)O[C@@H]1C (single isomer, unassigned) : provide Ratio
2

Item CCCCCCCCCC(=O)N[C@@H](Cc1c[nH]c2ccccc12)C(=O)N[C@H](CC(N)=O)C(=O)N[C@@H](CC(=O)O)C(=O)N[C@@H]1C(=O)NCC(=O)N[C@@H](CCCN)C(=O)N[C@@H](CC(=O)O)C(=O)N[C@H](C)C(=O)N[C@@H](CC(=O)O)C(=O)NCC(=O)N[C@H](CO)C(=O)N[C@@H]([C@H](C)CC(=O)O)C(=O)N[C@@H](CC(=O)c2ccccc2NCCCCCCC)C(=O)O[C@@H]1C (single isomer, unassigned) : provide Ratio
2

Item CCCCCCCCCCNc1ccccc1C(=O)C[C@@H]1NC(=O)[C@H]([C@H](C)CC(=O)O)NC(=O)[C@@H](CO)NC(=O)CNC(=O)[C@H](CC(=O)O)NC(=O)[C@@H](C)NC(=O)[C@H](CC(=O)O)NC(=O)[C@H](CCCN)NC(=O)CNC(=O)[C@@H](NC(=O)[C@H](CC(=O)O)NC(=O)[C@@H](CC(N)=O)NC(=O)[C@H](Cc2c[nH]c3ccccc23)NC(=O)CCCCCCCCC)[C@@H](C)OC1=O (single isomer, unassigned) : provide Ratio
2
